assay: growth of efflux-deficient E. coli DRC39 – strain DRC39, OD650, 48 h, E. coli filamentation inducers, primary screen (AID 1179);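 note: screen aims at cell division blockers that make cells filament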; conditions: E. coli DRC39 delta-acrAB growth, higher = more signal, called active from +8 up or from −8 down
# if value of z-score reaches 0.2, tag True; if it stays below, tag False

Reference set, count: 5
INSERT INTO results (compound, group) VALUES
  ('C=CC[C@]1(C(=O)N(C)C)N=C(c2ccc(OCCCO)cc2)O[C@H]1c1ccccc1', 'True'),
  ('CCCN1C(=O)[C@@H]2Cc3c([nH]c4ccccc34)[C@@H](c3cccc(O)c3)N2C1=O', 'False'),
  ('C=C(COC)C(=O)CC[C@H](OC(=O)c1ccccc1-c1ccccc1C(=O)O)c1ccc(OCCO)cc1', 'False'),
  ('O=C1OCCC=C[C@H]2OC34C=CCN(Cn5nnc6ccccc65)C(=O)[C@H]3N(CCCCCO)C(=O)[C@@H]4C12 (some centres not stated)', 'True'),
  ('CCCc1cc2c(n1Cc1ccc(OC)cc1)C(C)C1CN(C(=O)c3ccccc3)C(C)(C(=O)OC)C21 (configuration not stated)', 'False');

Exam item: decide whether the reported z-score for NC(=O)NCC#Cc1ccc2c(c1)[C@]1(C(=O)N2)[C@H](c2ccc(O)cc2)N2[C@H](c3ccccc3)[C@H](c3ccccc3)OC(=O)[C@H]2[C@@H]1C(=O)NC[C@H](O)c1ccccc1 is at least 0.2.
True

Dear colleague, could you confirm whether COc1ccc(C(=O)Nc2ccc(CN3C(=O)[C@@]4(O[C@@H](CC(=O)N5Cc6ccccc6C[C@H]5CO)[C@H]([Si](C)(C)c5ccc(OC)cc5)[C@H]4C)c4ccccc43)cc2)cc1 has z-score at or above 0.2?
True

====

experiment: probe aLAP1 signal on lysate-treated microarray – cell lysate, small-molecule microarray, COS7 lysate, primary screen (AID 1124); settings: probe aLAP1, fluorescence, higher = more signal;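 note: lysate comes from COS7 cells expressing LAP1 and is applied at 0.3 µg/mL; score merges spot fluorescence near 667 nm with signal-to-noise over triplicate slides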
Observation Type: composite z-score
# answer = number (no unit)

Past entries and their recorded results:
INSERT INTO results (compound, reported_measurement) VALUES
  ('C[N+](C)(C)CCCC[C@@H]1NC(=O)[C@@H]2C[C@H](C(=O)NCCCCCNC(=O)CS)[C@H](c3cccc(OCCO)c3)N2C1=O', -0.343),
  ('Cc1ccc(S[C@]2(C(=O)O)CC(=O)N(Cc3ccccc3C(F)(F)F)[C@@H]2c2ccc(CO)cc2)cc1', -0.67),
  ('COc1cc(NN2C(C(O)c3ccc(I)cc3)C=CC3C(=O)N(C)C(=O)C32)cc(OC)c1OC (stereo not given)', 0.189),
  ('C[N+](C)(C)CCCC[C@@H]1NC(=O)[C@@H]2C[C@H](C(=O)O)[C@H](c3cccc(OCCO)c3)N2C1=O', 0.303),
  ('COCCCNC(=O)[C@@]1(Cc2ccccc2I)c2ccccc2C(=O)N(Cc2ccccc2Cl)[C@H]1c1ccc(CO)cc1', 0.438);

Please look up its composite z-score: Cc1ccc(S[C@]2(C(=O)NCC(C)C)CC(=O)N(C3CCCCC3)[C@@H]2c2ccc(CO)cc2I)cc1
0.738

What composite z-score value was documented for this compound, C=CCNC(=O)[C@H]1[C@@H]2C(=O)O[C@@H](c3ccccc3)[C@@H](c3ccccc3)N2[C@@H](c2ccc(O)cc2)[C@]12C(=O)N(C(=O)OCCOC)c1ccc(C#CC3(O)CCCCCC3)cc12 ?
-0.0714

Fill in: composite z-score of CCCN1C(=O)[C@@H]2Cc3c([nH]c4ccccc34)[C@@H](c3cccc(O)c3)N2C1=O is ___
1.36

Entry CCCNC(=O)[C@@H]1c2ccccc2C(=O)N(CC23CC4CC(CC(C4)C2)C3)[C@H]1c1ccc(CO)cc1 : reported composite z-score = ?
0.12

# input compound: O=C(N1CCOCC1)[C@@]1(CCS(=O)(=O)c2ccccc2)COC(c2ccc(OCCCO)cc2)=N1 ; wanted: its composite z-score
-0.0296
